biological target: human α1G T-type channels (Homo sapiens); experiment: T-type calcium channel block, whole cell patch clamp, α1G; settings: HEK cells stably expressing human α1G; mainly non-inactivated protocol; values above 10,000 nM represented as 10000
Sequence (O43497 whole entry): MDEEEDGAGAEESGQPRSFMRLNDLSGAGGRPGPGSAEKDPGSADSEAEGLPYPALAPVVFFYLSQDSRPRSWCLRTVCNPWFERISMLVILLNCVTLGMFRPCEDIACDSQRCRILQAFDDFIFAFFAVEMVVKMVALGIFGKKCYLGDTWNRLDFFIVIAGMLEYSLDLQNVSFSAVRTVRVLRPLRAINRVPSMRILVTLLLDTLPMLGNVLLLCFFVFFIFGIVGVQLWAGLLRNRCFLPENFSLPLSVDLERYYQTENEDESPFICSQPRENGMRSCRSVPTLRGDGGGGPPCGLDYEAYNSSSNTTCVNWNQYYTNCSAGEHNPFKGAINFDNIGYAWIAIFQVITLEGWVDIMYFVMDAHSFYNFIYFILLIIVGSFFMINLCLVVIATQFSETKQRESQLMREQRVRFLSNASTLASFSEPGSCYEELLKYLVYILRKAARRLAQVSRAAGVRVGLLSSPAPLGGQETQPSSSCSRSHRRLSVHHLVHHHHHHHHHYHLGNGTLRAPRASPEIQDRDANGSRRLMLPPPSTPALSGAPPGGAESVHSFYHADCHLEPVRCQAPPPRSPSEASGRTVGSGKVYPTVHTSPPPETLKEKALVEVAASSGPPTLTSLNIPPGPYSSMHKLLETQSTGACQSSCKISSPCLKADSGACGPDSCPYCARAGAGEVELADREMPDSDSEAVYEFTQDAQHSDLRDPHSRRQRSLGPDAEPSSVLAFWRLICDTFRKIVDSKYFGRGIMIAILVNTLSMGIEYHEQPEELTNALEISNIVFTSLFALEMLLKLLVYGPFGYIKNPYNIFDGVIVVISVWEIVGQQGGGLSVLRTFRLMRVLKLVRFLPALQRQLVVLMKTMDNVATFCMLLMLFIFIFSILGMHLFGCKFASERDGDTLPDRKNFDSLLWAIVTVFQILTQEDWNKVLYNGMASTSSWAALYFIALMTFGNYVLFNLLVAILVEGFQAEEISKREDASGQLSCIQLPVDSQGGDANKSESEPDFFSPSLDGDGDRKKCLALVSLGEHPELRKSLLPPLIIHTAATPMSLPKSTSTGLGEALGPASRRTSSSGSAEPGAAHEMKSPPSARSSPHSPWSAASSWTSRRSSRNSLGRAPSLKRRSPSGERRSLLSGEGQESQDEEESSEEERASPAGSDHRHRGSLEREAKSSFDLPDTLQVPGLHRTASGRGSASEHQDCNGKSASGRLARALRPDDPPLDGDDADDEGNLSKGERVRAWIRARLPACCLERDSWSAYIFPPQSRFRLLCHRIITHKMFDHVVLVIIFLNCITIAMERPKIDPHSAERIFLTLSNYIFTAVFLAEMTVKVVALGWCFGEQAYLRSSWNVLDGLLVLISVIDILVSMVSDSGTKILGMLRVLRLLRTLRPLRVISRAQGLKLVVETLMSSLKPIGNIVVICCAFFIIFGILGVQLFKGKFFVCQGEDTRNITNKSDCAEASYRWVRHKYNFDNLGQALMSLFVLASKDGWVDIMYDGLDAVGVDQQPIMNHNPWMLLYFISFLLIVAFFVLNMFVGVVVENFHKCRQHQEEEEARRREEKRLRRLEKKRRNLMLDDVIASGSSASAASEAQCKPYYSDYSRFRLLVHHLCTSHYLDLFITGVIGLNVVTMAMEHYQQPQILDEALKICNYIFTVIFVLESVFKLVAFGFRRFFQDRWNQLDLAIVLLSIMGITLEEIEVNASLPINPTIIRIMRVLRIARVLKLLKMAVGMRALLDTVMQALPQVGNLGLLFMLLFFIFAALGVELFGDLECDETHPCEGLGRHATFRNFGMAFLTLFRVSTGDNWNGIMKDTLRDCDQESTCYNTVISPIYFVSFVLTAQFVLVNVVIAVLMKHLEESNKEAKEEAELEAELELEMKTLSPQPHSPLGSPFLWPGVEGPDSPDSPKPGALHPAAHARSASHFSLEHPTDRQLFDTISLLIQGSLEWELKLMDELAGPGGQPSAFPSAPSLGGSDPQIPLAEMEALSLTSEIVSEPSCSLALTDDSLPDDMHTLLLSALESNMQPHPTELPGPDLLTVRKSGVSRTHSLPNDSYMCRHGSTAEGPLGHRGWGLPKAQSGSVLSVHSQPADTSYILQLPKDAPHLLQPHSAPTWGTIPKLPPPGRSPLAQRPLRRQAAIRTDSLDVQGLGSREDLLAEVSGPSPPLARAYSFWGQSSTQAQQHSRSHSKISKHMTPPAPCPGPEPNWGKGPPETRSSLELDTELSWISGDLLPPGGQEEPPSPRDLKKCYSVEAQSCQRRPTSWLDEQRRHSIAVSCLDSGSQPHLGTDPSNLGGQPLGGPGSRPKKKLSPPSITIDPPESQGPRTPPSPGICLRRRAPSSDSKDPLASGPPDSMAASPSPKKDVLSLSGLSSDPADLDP
observed.property: IC50 (nM)

{"columns": ["molecule", "IC50 (nM)"],
 "data": [
  ["O=C(NC[C@H]1CC[C@@H](S(=O)(=O)c2cccc(C(F)(F)F)c2)CC1)c1ccc(F)c(C(F)(F)F)c1", 1150]
]}

a. Cn1nc(C(F)(F)F)cc1C(=O)NC[C@H]1CC[C@@H](S(=O)(=O)c2cccc(C(F)(F)F)c2)CC1
b. CN(CCC(C)(C)S(=O)(=O)c1cccc(C(F)(F)F)c1)C(=O)c1cn2ccc(C(F)(F)F)cc2n1
c. Cn1nc(C(F)(F)F)cc1C(=O)NCCC(C)(C)S(=O)(=O)c1cccc(C(F)(F)F)c1
d. O=C(N[C@H]1CC[C@@H](S(=O)(=O)c2cc(F)cc(C(F)(F)F)c2)CC1)c1ccc(F)c(C(F)(F)F)c1
e. O=C(N[C@H]1CC[C@@H](S(=O)(=O)c2cc(F)cc(C(F)(F)F)c2)CC1)c1ccnn1CC(F)(F)F
Q: hey, can you rank those molecules up there by IC50? biggest number first please Provide the labels, sequenced as the question asks.
Result: d, e, b, a, c
(d: 4820 nM, e: 1350 nM, b: 840 nM, a: 500 nM, c: 170 nM)

I. O=C(N[C@H]1C[C@H](CS(=O)(=O)c2cccc(C(F)(F)F)c2)C1)c1ccc(Cl)c(F)c1
II. O=C(N[C@H]1CC[C@@H](CS(=O)(=O)c2cccc(C(F)(F)F)c2)CC1)c1ccc(Cl)c(F)c1
III. CC1(NC(=O)c2ccc(F)c(C(F)(F)F)c2)CCC(S(=O)(=O)c2cccc(C(F)(F)F)c2)CC1 (stereo not drawn)
Q: Rank ascending by IC50. Provide the labels, sequenced as the question asks.
Result: I, II, III
(I: 630 nM, II: 4250 nM, III: 9900 nM)

1. CC(C)(CNS(=O)(=O)c1ccc(S(C)(=O)=O)cc1)S(=O)(=O)c1cccc(C(F)(F)F)c1
2. O=S(=O)(N[C@H]1CC[C@@](F)(S(=O)(=O)c2cccc(C(F)(F)F)c2)CC1)c1ccc(C(F)(F)F)cc1Cl
Q: Higher IC50 between 1 and 2 ? Pick one and reply with its label.
Result: 2
(2: 850 nM, 1: 520 nM)
